Item-by-item account of IC50
tested_system: skeletal myofibrils (myosin ATPase)
experiment: Skeletal Myofibril ATPase Assay
Assay type: biochemical
condition_label: Table 4A

| structure_string | measured_property | endpoint_result |
| --- | --- | --- |
| CC1(NC(=O)Cn2nc(-c3ccc(OC(F)F)nc3)ccc2=O)CCC1 | IC50 | 10 to 100 µM |
| CCNC(=O)Cn1nc(-c2ccc(N(C)C3CCC3)nc2)ccc1=O | IC50 | < 10 µM |
| CCNC(=O)Cn1nc(-c2cnc(OCCOC(F)(F)F)nc2)ccc1=O | IC50 | 10 to 100 µM |
| CCNC(=O)Cn1nc(-c2ccc(OCC3(F)COC3)nc2)ccc1=O | IC50 | 10 to 100 µM |

Hey, skeletal myofibrils (myosin ATPase) data for CCNC(=O)Cn1nc(-c2ccc(NC3CC(F)(F)C3)nc2)ccc1=O : IC50 came out at 10 to 100 µM

Hey, skeletal myofibrils (myosin ATPase) data for O=C(Cn1nc(-c2cnc(OCCOC(F)(F)F)nc2)ccc1=O)NC1CCC1 : IC50 came out at < 10 µM

Hey, skeletal myofibrils (myosin ATPase) data for CCNC(=O)Cn1nc(-c2ccc(NC3CCOCC3)nc2)ccc1=O : IC50 came out at > 100 µM

Hey, skeletal myofibrils (myosin ATPase) data for CCNC(=O)Cn1nc(-c2ccc(NC34CC(CO)(C3)C4)nc2)ccc1=O : IC50 came out at 10 to 100 µM

Hey, skeletal myofibrils (myosin ATPase) data for CCNC(=O)Cn1nc(-c2ccc(NC3COC3)nc2)ccc1=O : IC50 came out at < 10 µM

* * *

tested_system: skeletal myofibrils (myosin ATPase)
experiment: Skeletal Myofibril ATPase Assay
Type: biochemical
condition_label: Table 4C
pIC50: −log10 of the molar value.
measured_property: pIC50

| molecule | tested_system | pIC50 |
| --- | --- | --- |
| COc1ccc(-c2ccc(=O)n(CC(=O)NC3CCCC3)n2)cc1OC [IIIb-45] | skeletal myofibrils (myosin ATPase) | < 4.00 |
| Cc1ccc(-c2ccc(=O)n(CC(=O)NC3CCCCC3)n2)cc1 [IIIc-6] | skeletal myofibrils (myosin ATPase) | 4.00 to 5.00 |
| CCNC(=O)Cn1nc(-c2ccc(OC)cc2)ccc1=O [IIIa-3] | skeletal myofibrils (myosin ATPase) | > 5.00 |
| CCc1ccc(-c2ccc(=O)n(CC(=O)NCc3ccccc3Cl)n2)cc1 [IIIa-18] | skeletal myofibrils (myosin ATPase) | > 5.00 |
| COc1ccc(-c2ccc(=O)n(CC(=O)Nc3cccc4c3ccn4C)n2)cc1 [IIIb-4] | skeletal myofibrils (myosin ATPase) | > 5.00 |
| COc1ccc(-c2ccc(=O)n(CC(=O)NCc3nccn3C)n2)cc1 [IIIa-33] | skeletal myofibrils (myosin ATPase) | < 4.00 |
| COc1ccc(-c2ccc(=O)n(CC(=O)Nc3ccc4c(c3)OCO4)n2)cc1 [IIIb-28] | skeletal myofibrils (myosin ATPase) | 4.00 to 5.00 |
| COc1ccc(-c2ccc(=O)n(CC(=O)NCc3ccccc3F)n2)cc1 [IIIb-38] | skeletal myofibrils (myosin ATPase) | < 4.00 |
| O=C(Cn1nc(-c2ccc(Cl)cc2)ccc1=O)Nc1ccc2[nH]ccc2c1 [IIIc-22] | skeletal myofibrils (myosin ATPase) | > 5.00 |
| CCOc1ccc(-c2ccc(=O)n(CCNC(=O)CC3CCCC3)n2)cc1 [IIIb-43] | skeletal myofibrils (myosin ATPase) | < 4.00 |

Item: COc1ccccc1NC(=O)Cn1nc(-c2ccc(Cl)cc2)ccc1=O [IIIc-23] | pIC50: > 5.00

Item: CCc1ccc(-c2ccc(=O)n(CC(=O)Nc3ccc4c(c3)OCCO4)n2)cc1 [IIIb-44] | pIC50: < 4.00

Item: COc1ccc(-c2ccc(=O)n(CC(=O)NCCc3ccccc3)n2)c(F)c1 [IIIb-9] | pIC50: > 5.00

Item: COc1ccc(-c2ccc(=O)n(CC(=O)NCC3CCOCC3)n2)cc1 [IIIa-29] | pIC50: < 4.00

Item: COc1ccc(-c2ccc(=O)n(CC(=O)NCC(C)C)n2)cc1 [IIIb-29] | pIC50: 4.00 to 5.00

Item: COc1ccc(-c2ccc(=O)n(CC(=O)NCc3cccc(F)c3)n2)c(F)c1 [IIIb-55] | pIC50: < 4.00

* * *

tested_system: skeletal myofibrils (myosin ATPase)
experiment: Skeletal Myofibril ATPase Assay
Type: biochemical
condition_label: Table 4C
Item-by-item account of IC50

Some solved cases for reference:
| compound | IC50 |
| --- | --- |
| O=C(Cn1nc(-c2ccccc2)ccc1=O)NC1(c2ccccc2)CCC1 [IIIc-51] | < 10 µM |
| COc1ccc(-c2ccc(=O)n(CC(=O)NCc3ccc(F)cc3)n2)c(F)c1 [IIIb-46] | > 100 µM |
| O=C(Cn1nc(-c2ccccc2)ccc1=O)Nc1ccccc1C(F)(F)F [IIIc-52] | 10 to 100 µM |

Hey, skeletal myofibrils (myosin ATPase) data for COc1ccc(-c2ccc(=O)n(CC(=O)NCc3ccccc3Cl)n2)cc1 [IIIb-1] : IC50 came out at < 10 µM

Hey, skeletal myofibrils (myosin ATPase) data for COc1ccc(-c2ccc(=O)n(CC(=O)NCc3cccc(C)c3)n2)cc1 [IIIa-10] : IC50 came out at < 10 µM

Hey, skeletal myofibrils (myosin ATPase) data for COc1ccc(-c2ccc(=O)n(CC(=O)N(C)c3ccccc3)n2)cc1 [IIIc-7] : IC50 came out at 10 to 100 µM

Hey, skeletal myofibrils (myosin ATPase) data for COc1ccc(-c2ccc(=O)n(CC(=O)NCc3ccccc3C(F)(F)F)n2)cc1 [IIIa-11] : IC50 came out at < 10 µM

Hey, skeletal myofibrils (myosin ATPase) data for COc1ccc(-c2ccc(=O)n(CC(=O)NCCc3ccc(OC)c(OC)c3)n2)cc1 [IIIb-51] : IC50 came out at > 100 µM

Hey, skeletal myofibrils (myosin ATPase) data for COc1ccc(-c2ccc(=O)n(CC(=O)Nc3ccc(C(C)C)cc3)n2)cc1 [IIIb-56] : IC50 came out at > 100 µM

* * *

tested_system: skeletal myofibrils (myosin ATPase)
experiment: Skeletal Myofibril ATPase Assay
Format: biochemical
condition_label: Table 4A
Experimental: Example 12. Skeletal Myofibril ATPase Assay Overview: Myosin ATPase activity is assessed by using a coupled reaction system, in which ADP generated by the myosin ATPase function is coupled to the disappearance of NADH through the pyruvate kinase/lactate dehydrogenase (PK-LDH) system. […] The rate of the reaction is monitored through the time-dependent disappearance of NADH using absorbance at 340 nm. […]
Item-by-item account of IC50

Some solved cases for reference:
| compound | measured_property | endpoint_result |
| --- | --- | --- |
| Cn1nccc1CNC(=O)Cn1nc(-c2ccc(OC(F)F)nc2)ccc1=O | IC50 | > 100 µM |
| CCNC(=O)Cn1nc(-c2ccc(OCC(F)(F)F)nc2)ccc1=O | IC50 | 10 to 100 µM |
| CCNC(=O)Cn1nc(-c2ccc(N(C)C34CC(C3)C4)nc2)ccc1=O | IC50 | < 10 µM |
| CCNC(=O)Cn1nc(-c2cnc(Nc3ccc(F)cc3)nc2)ccc1=O | IC50 | < 10 µM |
| CCNC(=O)Cn1nc(-c2ccc(NC34CC(C3)C4)nc2)ccc1=O | IC50 | < 10 µM |
| CCNC(=O)Cn1nc(-c2ccc(OC3CC(F)(F)C3)nc2)ccc1=O | IC50 | 10 to 100 µM |
| O=C(Cn1nc(-c2cnc(OCC(F)(F)F)nc2)ccc1=O)NC1CCC1 | IC50 | < 10 µM |
| CCNC(=O)Cn1nc(-c2ccc(OC(F)F)[n+]([O-])c2)ccc1=O | IC50 | > 100 µM |
| CCCOc1ncc(-c2ccc(=O)n(CC(=O)NC3CCC3)n2)cn1 | IC50 | < 10 µM |
| CCNC(=O)Cn1nc(-c2ccc(C3CC3)nc2)ccc1=O | IC50 | 10 to 100 µM |

# ---- query compound ----
Item: CCNC(=O)Cn1nc(-c2ccc(OC(F)F)nc2)ccc1=O | IC50: < 10 µM

* * *

tested_system: skeletal myofibrils (myosin ATPase)
experiment: Skeletal Myofibril ATPase Assay
Assay type: biochemical
condition_label: Table 4B
Description: Example 12. Skeletal Myofibril ATPase Assay Overview: Myosin ATPase activity is assessed by using a coupled reaction system, in which ADP generated by the myosin ATPase function is coupled to the disappearance of NADH through the pyruvate kinase/lactate dehydrogenase (PK-LDH) system. […] The rate of the reaction is monitored through the time-dependent disappearance of NADH using absorbance at 340 nm. […]
pIC50: −log10 of the molar value.
measured_property: pIC50

Some solved cases for reference:
| compound | measured_property | endpoint_result |
| --- | --- | --- |
| CCNC(=O)Cn1nc(-c2ccc(OC(C)(F)F)cc2)ccc1=O [II-1] | pIC50 | > 5.00 |
| CCNC(=O)Cn1nc(-c2ccc(OCC(F)(F)F)cc2)ccc1=O [II-6] | pIC50 | > 5.00 |
| CCNC(=O)Cn1nc(-c2ccc(OC(F)(F)F)cc2)ccc1=O [II-5] | pIC50 | > 5.00 |
| O=C(Cn1nc(-c2ccc(OC(F)F)cc2)ccc1=O)NCC(F)(F)F [II-11] | pIC50 | 4.00 to 5.00 |
| O=C(Cn1nc(-c2ccc(OCC(F)(F)F)cc2)ccc1=O)NCc1ccncc1Cl [II-25] | pIC50 | < 4.00 |

Item: CC(C)(C)NC(=O)Cn1nc(-c2ccc(OC(F)F)cc2)ccc1=O [II-16] | pIC50: 4.00 to 5.00

Item: CC(C)CNC(=O)Cn1nc(-c2ccc(OC(F)F)cc2)ccc1=O [II-13] | pIC50: 4.00 to 5.00

Item: CC(=O)Nc1ccc(-c2ccc(=O)n(CC(=O)NCc3ccccc3Cl)n2)cc1 [II-8] | pIC50: > 5.00

Item: CCNC(=O)Cn1nc(-c2ccc(OCC(F)F)cc2)ccc1=O [II-7] | pIC50: > 5.00

Item: CCCCNC(=O)Cn1nc(-c2ccc(OC(F)F)cc2)ccc1=O [II-17] | pIC50: 4.00 to 5.00
